src = BigSolDB 2.1

- Applied conditions: in ethanol, 308.15 K
Readout: solubility (mole fraction)
The answer should be written as a number, with no unit following it.

// lookup solubility (mole fraction) for "N[C@@H](C(=O)N[C@@H]1C(=O)N2C(C(=O)O)=C(Cl)CS[C@H]12)c1ccccc1.O" 7.92e-05

* * *

- Applied conditions: in water, 298.15 K
Readout: solubility (mole fraction)
The answer should be written as a number, with no unit following it.

// lookup solubility (mole fraction) for "N[C@@H](C(=O)N[C@@H]1C(=O)N2C(C(=O)O)=C(Cl)CS[C@H]12)c1ccccc1.O" 0.000476

* * *

- Applied conditions: in acetone, 298.15 K
Readout: solubility (mole fraction)
The answer should be written as a number, with no unit following it.

// lookup solubility (mole fraction) for "N[C@@H](C(=O)N[C@@H]1C(=O)N2C(C(=O)O)=C(Cl)CS[C@H]12)c1ccccc1.O" 5.48e-05
